These data points were gathered from ChEMBL document CHEMBL1909294.

Record: DILI positive/negative reported on Hepatotoxicity.

# SUBSTANCE, DILI positive/negative
data = [
    ("BISMUTH SUBSALICYLATE", 0),
    ("FERROUS SULFATE", 0),
    ("LACTOSE, ANHYDROUS", 0),
    ("GALLIUM NITRATE HYDRATE", 0),
    ("AUROTHIOGLUCOSE", 1),
]

* * *

Record: HepSE_cholelithiasis reported on Hepatotoxicity.
ASSAY_ENDPOINT: HepSE_cholelithiasis

# COMPOUND, VAL
data = [
    ("COCCc1ccc(OCC(O)CNC(C)C)cc1 (stereo not given) [METOPROLOL]", 0),
    ("Cc1cc(C2CCCCC2)n(O)c(=O)c1 [CICLOPIROX]", 0),
    ("Nc1nc2c(ncn2CCC(CO)CO)c(=O)[nH]1 [PENCICLOVIR]", 0),
    ("CC(C)(O)c1ccccc1CC[C@@H](SCC1(CC(=O)O)CC1)c1cccc(/C=C/c2ccc3ccc(Cl)cc3n2)c1 [MONTELUKAST]", 0),
    ("CCCN(CCC)S(=O)(=O)c1ccc(C(=O)O)cc1 [PROBENECID]", 0),
    ("C#Cc1cccc(Nc2ncnc3cc(OCCOC)c(OCCOC)cc23)c1 [ERLOTINIB]", 0),
    ("NNC(=O)c1ccncc1 [ISONIAZID]", 0),
    ("CCCc1nn(C)c2c(=O)[nH]c(-c3cc(S(=O)(=O)N4CCN(C)CC4)ccc3OCC)nc12", 0),
    ("CN1CCN(C(=O)OC2c3nccnc3C(=O)N2c2ccc(Cl)cn2)CC1 (stereo not given) [ZOPICLONE]", 1),
    ("NC(=O)c1cnccn1 [PYRAZINAMIDE]", 0),
]

* * *

Record: HepSE_liver function tests abnormal reported on Hepatotoxicity.
ASSAY_ENDPOINT: HepSE_liver function tests abnormal

# COMPOUND, VAL
data = [
    ("CC(=O)Oc1c(C)cc(OCC(O)CNC(C)C)c(C)c1C (stereo not drawn)", 0),
    ("CCCOc1ccc(C(=O)OCCN(CC)CC)cc1N", 0),
    ("CC(C)c1nc(N(C)S(C)(=O)=O)nc(-c2ccc(F)cc2)c1/C=C/[C@@H](O)C[C@@H](O)CC(=O)O", 0),
    ("CNCC(O)c1ccc(OC(=O)C(C)(C)C)c(OC(=O)C(C)(C)C)c1 (stereo not drawn)", 0),
    ("CN1[C@@H]2CC[C@H]1C[C@@H](OC(c1ccccc1)c1ccccc1)C2", 0),
    ("CN(C)S(=O)(=O)c1ccc2c(c1)N(CCCN1CCC(CCO)CC1)c1ccccc1S2", 0),
    ("CNCCC(Oc1ccc(C(F)(F)F)cc1)c1ccccc1 (stereo not drawn)", 1),
    ("C[C@H](CS)C(=O)N1CCC[C@H]1C(=O)O", 0),
    ("CN(C)CCCN1c2ccccc2Sc2ccc(Cl)cc21", 0),
    ("NC1=NC(=O)C(c2ccccc2)O1 (stereo not drawn)", 0),
    ("CC(=O)N(CC(O)CO)c1c(I)c(C(=O)NCC(O)CO)c(I)c(C(=O)NCC(O)CO)c1I (stereo not drawn) [IOHEXOL]", 0),
    ("CC#CCC(C)[C@H](O)/C=C/[C@@H]1[C@H]2C/C(=C/CCCC(=O)O)C[C@H]2C[C@H]1O (stereo partly drawn)", 0),
    ("C[C@]12CC[C@@H]3c4ccc(O)cc4CC[C@H]3[C@@H]1CC[C@@H]2O", 0),
    ("Nc1ncnc2c1ncn2[C@@H]1O[C@H](CO)[C@@H](O)[C@H]1O", 0),
    ("CC[C@@H]([C@H](C)O)n1ncn(-c2ccc(N3CCN(c4ccc(OC[C@@H]5CO[C@@](Cn6cncn6)(c6ccc(F)cc6F)C5)cc4)CC3)cc2)c1=O", 1),
    ("Cc1ncc2n1-c1ccc(Cl)cc1C(c1ccccc1F)=NC2", 0),
    ("Clc1ccc(C(Cn2ccnc2)OCc2csc3c(Cl)cccc23)c(Cl)c1 (stereo not drawn)", 0),
    ("Cc1nnc2n1-c1ccc(Cl)cc1C(c1ccccc1Cl)=NC2", 0),
]

* * *

Record: HepSE_hepatomegaly reported on Hepatotoxicity.
ASSAY_ENDPOINT: HepSE_hepatomegaly

# COMPOUND, VAL
measured = [
    ("O=C1CCC(N2C(=O)c3ccccc3C2=O)C(=O)N1 (stereo not given) [THALIDOMIDE]", 1),
    ("CC[C@@H]1C(=O)OC[C@@H]1Cc1cncn1C", 0),
    ("CC(C)NCC(O)COc1cccc2[nH]ccc12 (stereo not given)", 0),
    ("CCCc1nn(C)c2c(=O)[nH]c(-c3cc(S(=O)(=O)N4CCN(C)CC4)ccc3OCC)nc12", 0),
    ("CC(=O)Oc1c(C)cc(OCC(O)CNC(C)C)c(C)c1C (stereo not given)", 0),
]

* * *

test system: Hepatotoxicity

# COMPOUND, HepSE_liver function tests abnormal
data = [
    ("CN1C[C@H](C(=O)N[C@]2(C)O[C@@]3(O)[C@@H]4CCCN4C(=O)[C@H](Cc4ccccc4)N3C2=O)C[C@@H]2c3cccc4[nH]cc(c34)C[C@H]21 [DIHYDROERGOTAMINE]", 0),
    ("C[C@H](/C=C/[C@H](C)C(C)(C)O)[C@H]1CC[C@H]2/C(=C/C=C3C[C@@H](O)C[C@H](O)C3)CCC[C@]12C [PARICALCITOL]", 0),
    ("Cc1nnc2n1-c1ccc(Cl)cc1C(c1ccccc1)=NC2 [ALPRAZOLAM]", 0),
    ("CN(C)CC(c1ccc(O)cc1)C1(O)CCCCC1 (stereo unspecified) [DESVENLAFAXINE]", 0),
    ("CCOCCn1c(N2CCCN(C)CC2)nc2ccccc21 [EMEDASTINE]", 0),
    ("CC(C)(C)NCC(O)c1cc(O)cc(O)c1 (stereo unspecified) [TERBUTALINE]", 0),
    ("CCOC(=O)[C@H](CCc1ccccc1)N[C@@H](C)C(=O)N1Cc2ccccc2C[C@H]1C(=O)O", 1),
    ("CC(O)(P(=O)(O)O)P(=O)(O)O [ETIDRONIC ACID]", 0),
    ("C[C@@H](O)[C@H]1C(=O)N2C(C(=O)O)=C(S[C@@H]3CN[C@H](C(=O)Nc4cccc(C(=O)O)c4)C3)[C@H](C)[C@H]12", 0),
    ("Cn1c(=O)c2[nH]cnc2n(C)c1=O.O [THEOPHYLLINE]", 0),
    ("CCCCCCCCCCCCCCCCCCCCCCO [DOCOSANOL]", 0),
    ("NCCS [CYSTEAMINE]", 0),
    ("CC[C@H]1OC(=O)[C@H](C)[C@@H](O[C@H]2C[C@@](C)(OC)[C@@H](O)[C@H](C)O2)[C@H](C)[C@@H](O[C@@H]2O[C@H](C)C[C@H](N(C)C)[C@H]2O)[C@](C)(O)C[C@@H](C)C(=O)[C@H](C)[C@@H](O)[C@]1(C)O [ERYTHROMYCIN]", 0),
    ("C[C@H]1C[C@H]2[C@@H]3CCC4=CC(=O)C=C[C@]4(C)[C@@]3(Cl)[C@@H](O)C[C@]2(C)[C@@]1(O)C(=O)CO [BECLOMETHASONE]", 0),
    ("Nc1nc(NC2CC2)c2ncn([C@H]3C=C[C@@H](CO)C3)c2n1 [ABACAVIR]", 0),
    ("CCN(CC)C(C)C(=O)c1ccccc1 (stereo unspecified) [DIETHYLPROPION]", 0),
]

* * *

Record: HepSE_Combined Scores reported on Hepatotoxicity.

# COMPOUND, HepSE_Combined Scores
data = [
    ("CC(=O)N1CCN(c2ccc(OCC3COC(Cn4ccnc4)(c4ccc(Cl)cc4Cl)O3)cc2)CC1 (configuration not stated)", 0),
    ("CNC(=O)c1c(I)c(NC(C)=O)c(I)c(C(=O)O)c1I", 0),
    ("CN(C)CCC(c1ccc(Cl)cc1)c1ccccn1 (configuration not stated)", 0),
    ("CC(=O)[C@@]1(O)CC[C@H]2[C@@H]3C=C(Cl)C4=CC(=O)[C@@H]5C[C@@H]5[C@]4(C)[C@H]3CC[C@@]21C", 6),
    ("Cc1c(O)cccc1C(=O)N[C@@H](CSc1ccccc1)[C@H](O)CN1C[C@H]2CCCC[C@H]2C[C@H]1C(=O)NC(C)(C)C", 4),
    ("C[N+](C)(C)CCOC(N)=O.[Cl-]", 0),
    ("NC(=O)CC[C@H](N)C(=O)O", 0),
    ("O=c1[nH]c(=O)n([C@H]2C[C@H](O)[C@@H](CO)O2)cc1C(F)(F)F", 0),
    ("CC(=O)O.NCc1ccc(S(N)(=O)=O)cc1 [MAFENIDE ACETATE]", 0),
    ("CCN[C@H]1CN(CCCOC)S(=O)(=O)c2sc(S(N)(=O)=O)cc21 [BRINZOLAMIDE]", 0),
    ("Oc1c(Cl)cc(Cl)c(Cl)c1Cc1c(O)c(Cl)cc(Cl)c1Cl", 0),
    ("CC(C(=O)O)c1ccc(C(=O)c2cccs2)cc1 (configuration not stated)", 0),
    ("C[C@@H]1C[C@H]2[C@@H]3C[C@H](F)C4=CC(=O)C=C[C@]4(C)[C@@]3(F)[C@@H](O)C[C@]2(C)[C@@]1(O)C(=O)SCF", 1),
    ("CCc1c2c(nc3ccc(OC(=O)N4CCC(N5CCCCC5)CC4)cc13)-c1cc3c(c(=O)n1C2)COC(=O)[C@]3(O)CC", 2),
    ("CC(C)(C)NCC(O)c1ccc(O)c(CO)n1 (configuration not stated)", 0),
    ("CNC(=C[N+](=O)[O-])NCCSCc1csc(CN(C)C)n1", 2),
    ("Cc1ccccc1N1C(=O)c2cc(S(N)(=O)=O)c(Cl)cc2NC1C (configuration not stated)", 2),
]
